# SYSTEM_TESTED: Peroxisome proliferator-activated receptor gamma (Homo sapiens)
# Sequence (P37231 whole entry, the tested form may be a part): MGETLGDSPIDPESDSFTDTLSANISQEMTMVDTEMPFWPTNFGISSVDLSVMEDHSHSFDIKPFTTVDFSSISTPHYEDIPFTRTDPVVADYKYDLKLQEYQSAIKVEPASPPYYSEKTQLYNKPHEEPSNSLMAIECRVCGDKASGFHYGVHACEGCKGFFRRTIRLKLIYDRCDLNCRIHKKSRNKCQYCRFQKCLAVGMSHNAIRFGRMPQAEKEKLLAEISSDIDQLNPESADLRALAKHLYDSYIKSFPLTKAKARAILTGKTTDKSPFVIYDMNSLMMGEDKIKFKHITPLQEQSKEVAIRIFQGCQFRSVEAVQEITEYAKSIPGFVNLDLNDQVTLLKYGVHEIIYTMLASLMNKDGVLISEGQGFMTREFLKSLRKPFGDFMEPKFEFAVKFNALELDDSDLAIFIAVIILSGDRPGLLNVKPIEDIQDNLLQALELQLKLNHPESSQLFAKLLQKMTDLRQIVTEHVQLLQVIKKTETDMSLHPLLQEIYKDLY
# ASSAY_INFO: Agonist activity at human GAL4 fused PPARgamma-LBD expressed in HEK293 cells after 18 hrs by luciferase reporter gene assay
MEASURED_ENDPOINT: EC50 (µM)

Previously resolved entries follow.
INSERT INTO measurements (compound, unit_annotation, measured_number) VALUES
  ('Cc1ccccc1OCCCOc1ccc2c(c1)OCC2CC(=O)O (stereo not drawn)', 'µM', 2.02),
  ('O=C(O)CC1COc2cc(OCCCOc3cccc(Br)c3)ccc21 (stereo not drawn)', 'µM', 1.67),
  ('O=C(O)C[C@@H]1COc2cc(OCCCOc3cccc(Cl)c3)ccc21', 'µM', 1.43),
  ('Cc1cc(OCCCOc2cccc(Cl)c2)ccc1OCC(=O)O', 'µM', 1.54),
  ('Cc1ccc(OCCCOc2ccc3c(c2)OCC3CC(=O)O)cc1 (stereo not drawn)', 'µM', 1.81),
  ('[2H]C([2H])(Cc1ccc(OCCCOc2cccc(Cl)c2)cc1)C(=O)O', 'µM', 1.92);

(P) CC(C)(C)c1cccc(OCCOc2ccc3c(c2)OCC3CC(=O)O)c1 (stereo not drawn)
(Q) O=C(O)CC1COc2cc(OCCOc3ccccc3)ccc21 (stereo not drawn)
(R) Cc1cc(OCCCOc2ccc(-c3ccccc3)cc2)ccc1OCC(=O)O
Ranking field: EC50; order: falling. Sort the labels as requested; that list is your answer.
Q, R, P
(Q: 7.75 µM, R: 4.56 µM, P: 2.03 µM)

(I) O=C(O)CC1COc2cc(OCCCOc3cccc(Cl)c3)ccc21 (stereo not drawn)
(II) O=C(O)COc1ccc(OCCCOc2cccc(Cl)c2)cc1F
Between I and II , whose recorded EC50 is greater? Please identify the chosen entry by its label.
II
(II: 3.17 µM, I: 1.69 µM)
